Reference source: ChEMBL document CHEMBL1134903

Recorded ED50 by entry
- Tested on: Staphylococcus aureus
- test_method_notes: Effective dose required to inhibit Staphylococcus aureus intraperitoneal (IP) infection model
- Type: functional

| chem_smiles | measurement_unit | inequality_sign | ED50 |
| --- | --- | --- | --- |
| CC[C@H]1OC(=O)[C@H](C)[C@H]2OC3(CCN(C(=O)c4ccco4)CC3)O[C@](C)(C[C@@H](C)CN(C)[C@H](C)[C@@H](O)[C@]1(C)O)[C@H](O[C@@H]1O[C@H](C)C[C@H](N(C)C)[C@H]1O)[C@H]2C | mg/kg | > | 20 |
| CC[C@H]1OC(=O)[C@H](C)[C@H]2OC3(CCN(C(=O)c4cccnc4Cl)CC3)O[C@](C)(C[C@@H](C)CN[C@H](C)[C@@H](O)[C@]1(C)O)[C@H](O[C@@H]1O[C@H](C)C[C@H](N(C)C)[C@H]1O)[C@H]2C | mg/kg | = | 9.4 |
| CC[C@H]1OC(=O)[C@H](C)[C@H]2OC3(CCN(C(=O)c4ccnc5ccccc45)CC3)O[C@](C)(C[C@@H](C)CN(C)[C@H](C)[C@@H](O)[C@]1(C)O)[C@H](O[C@@H]1O[C@H](C)C[C@H](N(C)C)[C@H]1O)[C@H]2C | mg/kg | = | 20 |
| CC[C@H]1OC(=O)[C@H](C)[C@H]2OC3(CCN(CCc4ccc5ccccc5n4)CC3)O[C@](C)(C[C@@H](C)CN[C@H](C)[C@@H](O)[C@]1(C)O)[C@H](O[C@@H]1O[C@H](C)C[C@H](N(C)C)[C@H]1O)[C@H]2C | mg/kg | = | 22 |

----------
- System: Escherichia coli
- test_method_notes: Minimum inhibitory concentration against Escherichia coli
- Type: functional
Known MIC of a selection of molecules
result_type: MIC (µg/mL)

| chem_smiles | measurement_unit | readout_number |
| --- | --- | --- |
| CC[C@H]1OC(=O)[C@H](C)[C@H]2OC3(CCN(CCc4ccc(Cl)cc4)CC3)O[C@](C)(C[C@@H](C)CN(C)[C@H](C)[C@@H](O)[C@]1(C)O)[C@H](O[C@@H]1O[C@H](C)C[C@H](N(C)C)[C@H]1O)[C@H]2C | µg/mL | 0.2 |
| CC[C@H]1OC(=O)[C@H](C)[C@H]2OC3(CCN(CCc4ccc(NC(C)=O)cc4)CC3)O[C@](C)(C[C@@H](C)CN(C)[C@H](C)[C@@H](O)[C@]1(C)O)[C@H](O[C@@H]1O[C@H](C)C[C@H](N(C)C)[C@H]1O)[C@H]2C | µg/mL | 0.39 |
| CC[C@H]1OC(=O)[C@H](C)[C@H]2OC3(CCN(C(=O)c4ccccn4)CC3)O[C@](C)(C[C@@H](C)CN[C@H](C)[C@@H](O)[C@]1(C)O)[C@H](O[C@@H]1O[C@H](C)C[C@H](N(C)C)[C@H]1O)[C@H]2C | µg/mL | 1.56 |
| CC[C@H]1OC(=O)[C@H](C)[C@H]2OC3(CCN(CCc4ccc(OC)cc4)CC3)O[C@](C)(C[C@@H](C)CN[C@H](C)[C@@H](O)[C@]1(C)O)[C@H](O[C@@H]1O[C@H](C)C[C@H](N(C)C)[C@H]1O)[C@H]2C | µg/mL | 0.2 |
| CC[C@H]1OC(=O)[C@H](C)[C@H]2OC3(CCN(Cc4cccnc4)CC3)O[C@](C)(C[C@@H](C)CN[C@H](C)[C@@H](O)[C@]1(C)O)[C@H](O[C@@H]1O[C@H](C)C[C@H](N(C)C)[C@H]1O)[C@H]2C | µg/mL | 0.78 |
| CC[C@H]1OC(=O)[C@H](C)[C@H]2OC3(CCN(C(=O)c4cccnc4Cl)CC3)O[C@](C)(C[C@@H](C)CN[C@H](C)[C@@H](O)[C@]1(C)O)[C@H](O[C@@H]1O[C@H](C)C[C@H](N(C)C)[C@H]1O)[C@H]2C | µg/mL | 3.13 |
| CC[C@H]1OC(=O)[C@H](C)[C@H]2OC3(CCN(CCc4ccc5ccccc5n4)CC3)O[C@](C)(C[C@@H](C)CN(C)[C@H](C)[C@@H](O)[C@]1(C)O)[C@H](O[C@@H]1O[C@H](C)C[C@H](N(C)C)[C@H]1O)[C@H]2C | µg/mL | 0.78 |
| CC[C@H]1OC(=O)[C@H](C)[C@H]2OC3(CCNCC3)O[C@](C)(C[C@@H](C)CN(C)[C@H](C)[C@@H](O)[C@]1(C)O)[C@H](O[C@@H]1O[C@H](C)C[C@H](N(C)C)[C@H]1O)[C@H]2C | µg/mL | 0.2 |
| CC[C@H]1OC(=O)[C@H](C)[C@H]2OC3(CCN(C(=O)c4ccco4)CC3)O[C@](C)(C[C@@H](C)CN(C)[C@H](C)[C@@H](O)[C@]1(C)O)[C@H](O[C@@H]1O[C@H](C)C[C@H](N(C)C)[C@H]1O)[C@H]2C | µg/mL | 0.78 |
